# merged literature set: Ki with Progesterone receptor (Homo sapiens, UniProt P06401)
Molecular target: Progesterone receptor (Homo sapiens, UniProt P06401)
Sequence (P06401 whole entry): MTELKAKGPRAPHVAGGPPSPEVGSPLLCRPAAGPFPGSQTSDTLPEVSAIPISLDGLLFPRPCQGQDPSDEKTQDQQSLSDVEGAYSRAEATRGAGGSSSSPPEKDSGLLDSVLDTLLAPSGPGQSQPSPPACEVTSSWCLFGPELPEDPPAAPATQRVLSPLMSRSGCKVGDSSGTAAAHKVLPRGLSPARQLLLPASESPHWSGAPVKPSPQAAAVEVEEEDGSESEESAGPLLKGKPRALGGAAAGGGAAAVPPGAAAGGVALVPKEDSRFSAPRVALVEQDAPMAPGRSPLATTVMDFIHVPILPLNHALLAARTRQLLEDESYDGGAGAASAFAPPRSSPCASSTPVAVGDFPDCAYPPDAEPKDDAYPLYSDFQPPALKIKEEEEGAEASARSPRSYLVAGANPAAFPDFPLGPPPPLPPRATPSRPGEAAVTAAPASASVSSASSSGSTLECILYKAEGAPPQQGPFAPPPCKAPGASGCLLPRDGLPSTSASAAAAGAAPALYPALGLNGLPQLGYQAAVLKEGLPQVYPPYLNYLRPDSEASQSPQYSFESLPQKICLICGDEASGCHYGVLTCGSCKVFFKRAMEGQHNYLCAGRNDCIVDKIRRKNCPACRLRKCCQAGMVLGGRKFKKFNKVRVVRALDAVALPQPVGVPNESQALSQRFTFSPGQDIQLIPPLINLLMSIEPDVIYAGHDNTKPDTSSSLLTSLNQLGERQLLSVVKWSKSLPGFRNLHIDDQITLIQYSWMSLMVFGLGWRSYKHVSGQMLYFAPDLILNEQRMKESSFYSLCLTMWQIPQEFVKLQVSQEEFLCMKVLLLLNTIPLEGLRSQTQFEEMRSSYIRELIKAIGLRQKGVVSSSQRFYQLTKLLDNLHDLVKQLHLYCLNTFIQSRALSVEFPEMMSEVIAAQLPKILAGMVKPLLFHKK
Please respond with the number in nM and leave the unit unwritten.

Consider the worked cases shown below.
Identify Ki associated with the molecule CCn1cc(-c2ccc(C#N)cc2)c2ccc(NS(C)(=O)=O)cc21
4.23

Identify Ki associated with the molecule CC1=CC(C)(C)Nc2ccc3c(c21)C(c1ccc(C)c(F)c1)Oc1ccccc1-3 (configuration not stated)
1.8

Identify Ki associated with the molecule CC(=O)c1ccc(NC(=O)O[C@@H]2[C@@H](C)c3c(cc(F)c(-c4cccc5cc[nH]c45)c3F)NC2(C)C)cc1 (racemic)
231

Identify Ki associated with the molecule C#C[C@]1(O)CC[C@H]2[C@@H]3CCC4=CC(=O)CCC4=C3[C@@H](c3ccc(N(C)CCNC(=O)O[C@@H]4C[C@@H]5CC(O)CC[C@]5(C)[C@H]5C[C@H](O)[C@]6(C)[C@@H]([C@H](C)CCC(=O)O)CC[C@H]6[C@H]45)cc3)C[C@@]21C (some centres not stated)
4.6

Identify Ki associated with the molecule CC1=CC(C)(C)Nc2ccc(-c3ccccc3)cc21
133

Others:
Identify Ki associated with the molecule C[C@@H]1C[C@H]2[C@@H]3CCC4=CC(=O)C=C[C@]4(C)[C@@]3(F)[C@@H](O)C[C@]2(C)[C@@]1(O)C(=O)CO
561

Identify Ki associated with the molecule COc1c(O)ccc2c1-c1ccc3c(c1/C(=C/c1cccc(C)c1)O2)C(C)=CC(C)(C)N3
400

Identify Ki associated with the molecule COc1ccc2c(c1)-c1ccc3c(c1C(c1ccccc1)O2)C(C)=CC(C)(C)N3 (configuration not stated)
390

Identify Ki associated with the molecule C#CCC1Oc2cccc(OC)c2-c2ccc3c(c21)C(C)=CC(C)(C)N3 (configuration not stated)
760

Identify Ki associated with the molecule CC1=CC(C)(C)Nc2ccc3c(c21)/C(=C/c1c(F)cccc1F)Oc1ccccc1-3
31.3

Identify Ki associated with the molecule C#C[C@]1(O)CC[C@H]2[C@@H]3CCC4=CC(=O)CCC4=C3[C@@H](c3ccc(N(C)CCOC4CC[C@@]5(C)[C@@H](C4)C[C@@H](O)[C@@H]4[C@@H]5C[C@H](O)[C@]5(C)[C@@H]([C@H](C)CCC(=O)NCCS(=O)(=O)O)CC[C@@H]45)cc3)C[C@@]21C (some centres not stated)
0.53

Identify Ki associated with the molecule CCO/N=C1/c2c(cc(F)c(-c3cccc4c(C)c[nH]c34)c2F)NC(C)(C)C1O (racemic)
27

Identify Ki associated with the molecule CC1=CC(C)(C)Nc2ccc3c(c21)C(c1cc(C)cc(Br)c1)Oc1ccccc1-3 (configuration not stated)
0.87

Identify Ki associated with the molecule CC1=CC(C)(C)Nc2ccc3c(c21)C(c1ccc(C)cc1)Oc1ccccc1-3 (configuration not stated)
2.3

Identify Ki associated with the molecule CC1=CC(C)(C)Nc2ccc(-c3cc(F)cc(F)c3)cc21
10

Identify Ki associated with the molecule CC1=CC(C)(C)Nc2ccc3c(c21)/C(=C/c1cccc(C)c1)Oc1ccccc1-3
39.7

Identify Ki associated with the molecule COc1ccc(C2Oc3ccccc3-c3ccc4c(c32)C(C)=CC(C)(C)N4)cc1 (configuration not stated)
13.3

Identify Ki associated with the molecule CC[C@@H](C)n1cc(-c2ccc(C#N)cc2)c2ccc(NS(C)(=O)=O)cc21
0.834
